system: CCRIS mutagenicity, Ames/micronucleus/aberration tests; experiment: CCRIS mutagenicity studies; conditions: Test System: AMES SALMONELLA TYPHIMURIUM; Strain/Indicator: TA100; Metabolic Activation: NONE; Method: PREINCUBATION
Activity calls are given as the source filed them. How the calls were made is not given here.
Return exactly one item of active, inactive

Worked examples, 2 compounds total:
COMPOUND: O=C1c2ccccc2C(=O)c2cc(CO)ccc21
LABEL CLASS: inactive

COMPOUND: CN(C)C
LABEL CLASS: inactive

Answer briefly: the call reported for CC1(c2ccc(Br)cc2)CO1 (configuration not stated) in this assay.
inactive

Answer briefly: the call reported for "N#CCCC#N" in this assay.
inactive

Answer briefly: the call reported for "COC(=O)c1ccc(C)cc1" in this assay.
inactive

Answer briefly: the call reported for "O=C1C=CC(=O)C(c2ccccc2)=C1" in this assay.
inactive

Answer briefly: the call reported for "c1ccc(Oc2ccccc2)cc1" in this assay.
inactive

Answer briefly: the call reported for "COC1=CC=CC=CC1" in this assay.
inactive

###

test system: CCRIS mutagenicity, Ames/micronucleus/aberration tests; experiment: CCRIS mutagenicity studies; conditions: Test System: AMES SALMONELLA TYPHIMURIUM; Strain/Indicator: TA102; Metabolic Activation: NONE; Method: STANDARD PLATE
Active and inactive are the calls of the source. The rule behind the calls is not given here.
Return exactly one item of YES for active, NO for inactive

Worked examples, 4 molecules total:
MOLECULE: CCOC(=O)c1[nH]c2ccccc2c1N=Cc1ccc([N+](=O)[O-])cc1
TARGET OF ASSAY: CCRIS mutagenicity, Ames/micronucleus/aberration tests
LABEL CLASS: NO
--
MOLECULE: CN1CCN(c2ccc3nc(CCc4ccc5nc(-c6ccc(N(CCCl)CCCl)cc6)[nH]c5c4)[nH]c3c2)CC1
TARGET OF ASSAY: CCRIS mutagenicity, Ames/micronucleus/aberration tests
LABEL CLASS: YES
--
MOLECULE: CCCCCCNC(=O)n1cc(F)c(=O)[nH]c1=O
TARGET OF ASSAY: CCRIS mutagenicity, Ames/micronucleus/aberration tests
LABEL CLASS: NO
--
MOLECULE: CCOC(=O)C1=C(C)NC(C)=C(C(=O)OCC2COC3(CCCC3)O2)C1c1cccc(Cl)c1 (stereo not given)
TARGET OF ASSAY: CCRIS mutagenicity, Ames/micronucleus/aberration tests
LABEL CLASS: NO

Answer briefly: the call reported for "Cc1ccc(N(N)c2ccc(C)cc2)cc1" in this assay.
YES

###

system: CCRIS mutagenicity, Ames/micronucleus/aberration tests; assay: CCRIS mutagenicity studies; conditions: Test System: AMES SALMONELLA TYPHIMURIUM; Strain/Indicator: TA98; Metabolic Activation: NONE; Method: STANDARD PLATE
The source made the active and inactive calls. No rule for the calls is given here.
Return exactly one item of YES for active, NO for inactive

Worked examples, 2 compounds total:
COMPOUND: ONc1ccc(Cl)cc1
TARGET OF ASSAY: CCRIS mutagenicity, Ames/micronucleus/aberration tests
LABEL CLASS: NO

COMPOUND: Clc1ccccc1-c1nc2ccccc2o1
TARGET OF ASSAY: CCRIS mutagenicity, Ames/micronucleus/aberration tests
LABEL CLASS: NO

Answer briefly: the call reported for "O=C(c1ccc([N+](=O)[O-])cc1)[C@@H]1O[C@@H]1c1ccccc1" in this assay.
NO

Answer briefly: the call reported for "CCc1cc(C(C)(C)C)c(O)c(C(C)(C)C)c1" in this assay.
NO

Answer briefly: the call reported for CN1CCC=C2c3nc(N)sc3CCC21 (stereo not given) in this assay.
NO

###

tested on: CCRIS mutagenicity, Ames/micronucleus/aberration tests; experiment: CCRIS mutagenicity studies; settings: Test System: AMES SALMONELLA TYPHIMURIUM; Strain/Indicator: TA97; Metabolic Activation: RAT, LIVER, S-9, AROCLOR 1254 (10%); Method: PREINCUBATION
The source made the active and inactive calls. How the calls were made is not given here.
Return exactly one item of active, inactive

MOLECULE: Nc1ccccc1S(=O)(=O)O
LABEL CLASS: inactive
--
MOLECULE: Oc1c(I)cc(Cl)c2cccnc12
LABEL CLASS: inactive
--
MOLECULE: c1ccc(Nc2ccccc2)cc1
LABEL CLASS: inactive
--
MOLECULE: Cc1cc(O)ccc1Cl
LABEL CLASS: inactive
--
MOLECULE: CCOC(/C=C(\C)CCC=C(C)C)OCC
LABEL CLASS: inactive

Answer briefly: the call reported for CC(CC(=O)O)C(=O)O (configuration not stated) in this assay.
inactive

Answer briefly: the call reported for "Nc1cc([N+](=O)[O-])cc(Cl)c1O" in this assay.
active

###

tested on: CCRIS mutagenicity, Ames/micronucleus/aberration tests; assay: CCRIS mutagenicity studies; conditions: Test System: AMES SALMONELLA TYPHIMURIUM; Strain/Indicator: TA97; Metabolic Activation: NONE; Method: STANDARD PLATE
Calls of active or inactive are those of the source. No rule for the calls is given here.
Return exactly one item of active, inactive

MOLECULE: ClC1C(Cl)C(Cl)C(Cl)C(Cl)C1Cl (stereo not drawn)
TARGET OF ASSAY: CCRIS mutagenicity, Ames/micronucleus/aberration tests
LABEL CLASS: inactive
//
MOLECULE: ClCC(Cl)Cl
TARGET OF ASSAY: CCRIS mutagenicity, Ames/micronucleus/aberration tests
LABEL CLASS: active
//
MOLECULE: CC(C)(c1ccc(OP(O)O)cc1)c1ccc(OP(O)O)cc1
TARGET OF ASSAY: CCRIS mutagenicity, Ames/micronucleus/aberration tests
LABEL CLASS: inactive
//
MOLECULE: Cc1cc(Cl)ccc1O
TARGET OF ASSAY: CCRIS mutagenicity, Ames/micronucleus/aberration tests
LABEL CLASS: active
//
MOLECULE: CCC1(c2ccccc2)C(=O)NC(=O)NC1=O
TARGET OF ASSAY: CCRIS mutagenicity, Ames/micronucleus/aberration tests
LABEL CLASS: inactive
//
MOLECULE: CC1(C)CC[C@]2(C(=O)O)CC[C@]3(C)C(=CC[C@@H]4[C@@]5(C)C[C@H](O)[C@H](O)[C@@](C)(C(=O)O)[C@@H]5CC[C@]43C)[C@@H]2C1
TARGET OF ASSAY: CCRIS mutagenicity, Ames/micronucleus/aberration tests
LABEL CLASS: inactive
//
MOLECULE: O=P(O)(O)O
TARGET OF ASSAY: CCRIS mutagenicity, Ames/micronucleus/aberration tests
LABEL CLASS: inactive
//
MOLECULE: O=C1C=CC(=O)c2ccccc21
TARGET OF ASSAY: CCRIS mutagenicity, Ames/micronucleus/aberration tests
LABEL CLASS: inactive
//
MOLECULE: CCc1cc(C(C)(C)C)c(O)c(C(C)(C)C)c1
TARGET OF ASSAY: CCRIS mutagenicity, Ames/micronucleus/aberration tests
LABEL CLASS: inactive
//
MOLECULE: Cc1c(N=O)c(=O)n(-c2ccccc2)n1C
TARGET OF ASSAY: CCRIS mutagenicity, Ames/micronucleus/aberration tests
LABEL CLASS: active

Answer briefly: the call reported for "COc1ccc2cc(CCC(C)=O)ccc2c1" in this assay.
inactive

Answer briefly: the call reported for "O=C(Cn1c(=O)sc2ccccc21)OCc1ccccc1" in this assay.
inactive

Answer briefly: the call reported for "CC(C)Nc1nc(N)nc(Cl)n1" in this assay.
inactive

###

system: CCRIS mutagenicity, Ames/micronucleus/aberration tests; assay: CCRIS mutagenicity studies; conditions: Test System: AMES SALMONELLA TYPHIMURIUM; Strain/Indicator: TA100; Metabolic Activation: HAMSTER, LIVER, S-9, AROCLOR 1254 (10%); Method: PREINCUBATION
Calls of active or inactive are those of the source. The rule behind the calls is not given here.
Return exactly one item of active, inactive

Worked examples, 8 compounds total:
COMPOUND: Cc1cc(Cl)ccc1O
TARGET OF ASSAY: CCRIS mutagenicity, Ames/micronucleus/aberration tests
LABEL CLASS: inactive
//
COMPOUND: CCOC(=O)c1ccccc1C(=O)OCC
TARGET OF ASSAY: CCRIS mutagenicity, Ames/micronucleus/aberration tests
LABEL CLASS: inactive
//
COMPOUND: NC1CCC(CC2CCC(N)CC2)CC1 (stereo not given)
TARGET OF ASSAY: CCRIS mutagenicity, Ames/micronucleus/aberration tests
LABEL CLASS: inactive
//
COMPOUND: C=C(C)C(=O)OCCC
TARGET OF ASSAY: CCRIS mutagenicity, Ames/micronucleus/aberration tests
LABEL CLASS: inactive
//
COMPOUND: C/C=C1\CC2C=CC1C2 (stereo not given)
TARGET OF ASSAY: CCRIS mutagenicity, Ames/micronucleus/aberration tests
LABEL CLASS: inactive
//
COMPOUND: ClCC(Br)CBr (stereo not given)
TARGET OF ASSAY: CCRIS mutagenicity, Ames/micronucleus/aberration tests
LABEL CLASS: active
//
COMPOUND: Cc1c(C)c(Br)c(Br)c(Br)c1Br
TARGET OF ASSAY: CCRIS mutagenicity, Ames/micronucleus/aberration tests
LABEL CLASS: inactive
//
COMPOUND: NCCCN
TARGET OF ASSAY: CCRIS mutagenicity, Ames/micronucleus/aberration tests
LABEL CLASS: inactive

Answer briefly: the call reported for CN(C)CCOC(C)(c1ccccc1)c1ccccn1 (stereo not given) in this assay.
inactive

Answer briefly: the call reported for "O=C1OC(c2ccc(O)cc2)(c2ccc(O)cc2)c2ccccc21" in this assay.
inactive
